Consider the following compounds; for each one, report its inhibition.
Test system: Dengue virus
METHOD DESCRIPTION: Inhibition of Dengue virus NS2B-NS3 protease expressed in Escherichia coli BL 21 (DE3) using Abz-Nle-Lys-Arg-Arg-Ser-3-(NO2)Tyr as substrate at 50 uM after 15 mins
# number only, unit % dropped from output

Q) # assay system Dengue virus: give inhibition of CCCC[C@H](NC(=O)[C@H](CCCCN)NC(=O)[C@H](CCCNC(=N)N)NC(=O)c1ccc(/C=C(\C#N)C(=O)NC2CC2)cc1)C(N)=O
A) 88.5

Q) Please indicate recorded inhibition of CCCC[C@H](NC(=O)[C@H](CCCCN)NC(=O)[C@H](CCCNC(=N)N)NC(=O)c1ccc(/C=C2\SC(=O)N(C)C2=O)cc1)C(N)=O measured with Dengue virus.
A) 91.1

Q) Recall the reported inhibition of CCCC[C@H](NC(=O)[C@H](CCCCN)NC(=O)[C@H](CCCNC(=N)N)NC(=O)c1ccc(/C=C2\SC(=S)N(CCOC(C)=O)C2=O)cc1)C(N)=O when tested on Dengue virus.
A) 89.3

Q) Give inhibition for CCCC[C@H](NC(=O)[C@H](CCCN)NC(=O)[C@H](CCCNC(=N)N)NC(=O)c1ccc(/C=C2\SC(=O)N(Cc3ccccc3)C2=O)cc1)C(N)=O tested on Dengue virus.
A) 74.5

Q) Find the measured inhibition of CCCC[C@H](NC(=O)[C@H](CCCCN)NC(=O)[C@H](CCCNC(=N)N)NC(=O)c1ccc(/C=C2\SC(=S)N(C3CC3)C2=O)cc1)C(N)=O with Dengue virus as test system.
A) 94.6

Q) Tell me inhibition of CCCC[C@H](NC(=O)[C@H](CCCCN)NC(=O)[C@H](CCCNC(=N)N)NC(=O)c1ccc(/C=C2\SC(=S)N(Cc3ccc(F)cc3)C2=O)cc1)C(N)=O when tested on Dengue virus.
A) 99.4

---

Test system: West Nile virus
METHOD DESCRIPTION: Inhibition of West Nile virus NS2B-NS3 protease expressed in Escherichia coli BL 21 (DE3) using Abz-Gly-Leu-Lys-Arg-Gly-Gly-3-(NO2)Tyr as substrate at 50 uM after 15 mins
Binary call on inhibition: t from 50% upward, f beneath that.

Q) Assess whether reported inhibition for CCCC[C@H](NC(=O)[C@H](CCCC)NC(=O)[C@H](CCCNC(=N)N)NC(=O)c1ccc(/C=C2\SC(=O)N(Cc3ccccc3)C2=O)cc1)C(N)=O sits at 50% or higher.
A) t

Q) // inclusive: inhibition at least 50%? input: C=CCN1C(=O)S/C(=C\c2ccc(C(=O)N[C@@H](CCCNC(=N)N)C(=O)N[C@@H](CCCCN)C(=O)N[C@@H](CCCC)C(N)=O)cc2)C1=O
A) f

Q) Please check the record CCCC[C@H](NC(=O)[C@H](CCCCN)NC(=O)[C@H](CCCNC(=N)N)NC(=O)c1ccc(/C=C2\SC(=O)N(CCC)C2=O)cc1)C(N)=O and state if its inhibition is at or above 50%.
A) f

Q) Can CCCC[C@H](NC(=O)[C@H](CCCCN)NC(=O)[C@H](CCCNC(=N)N)NC(=O)c1ccc(/C=C(\C#N)C(=O)NC2CC2)cc1)C(N)=O be said to have inhibition at or above 50%?
A) f

Q) Would you say CCCC[C@H](NC(=O)[C@H](CCCCN)NC(=O)[C@H](CCCNC(=N)N)NC(=O)c1ccc(/C=C2\SC(=S)N(Cc3ccc(Cl)cc3)C2=O)cc1)C(N)=O shows inhibition at minimum 50%?
A) t
